- assay_system: T1, human TMEM106B (human, UniProt Q9NUM4 2-274)
- T1 construct: full-length, transiently expressed on HEK293 cells, or natively expressed on HeLa, U251 and A549 cells (the cell is named under assay); also the source of the Pepscan peptides; also called huTMEM106B; huTMEM
- procedure_details: FACS A549;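 further: flow cytometry of cells incubated on ice for 1 h with hybridoma supernatant or purified antibody at 10 µg/mL, dead propidium iodide-positive cells gated out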
value_type: MFI (MFI)
Unit MFI implied. Number only.

- binder: "TM-10 (antibody, V domains shown) VH: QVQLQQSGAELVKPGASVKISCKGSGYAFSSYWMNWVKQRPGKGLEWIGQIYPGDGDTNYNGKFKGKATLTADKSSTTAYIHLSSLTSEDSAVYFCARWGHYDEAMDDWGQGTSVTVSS VL: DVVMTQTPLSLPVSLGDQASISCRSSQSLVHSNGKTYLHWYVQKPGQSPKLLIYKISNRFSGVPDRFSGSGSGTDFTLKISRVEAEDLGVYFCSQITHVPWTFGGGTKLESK"
  value_type: "MFI"
  value_measured: 823

Please give the measured MFI for this binder: TM-49 (antibody, V domains shown, mouse IgG (hybridoma)) VH: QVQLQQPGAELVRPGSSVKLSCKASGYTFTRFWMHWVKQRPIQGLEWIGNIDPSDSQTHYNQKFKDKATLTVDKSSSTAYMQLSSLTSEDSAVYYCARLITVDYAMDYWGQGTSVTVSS VL: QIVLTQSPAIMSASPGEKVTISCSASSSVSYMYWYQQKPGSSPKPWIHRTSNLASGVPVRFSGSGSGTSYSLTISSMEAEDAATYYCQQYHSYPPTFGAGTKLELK
924
